Here the recorded apparent KD of K4 kissing-loop reporter is given for each entry.
System: K4 kissing-loop RNA reporter;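 also: bound reporter read as fluorescence of individual clusters on recovered sequencing chips by microscopy, with normalized cluster intensities fitted with a binding model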
Test: apparent KD of K4 kissing-loop reporter; higher = weaker reporter binding
Conditions: Eterna round: R107; input ligand: FMN 200 uM
Give just the number in nM; leave the unit off.

Here are 3 sequences together with their reported answers.
chain	apparent KD of K4 kissing-loop reporter / nM
UUUGGUUUCUCGGCCGCCACUCGUUGGUAAUGGGCCUCAGGGAUAUAGUGAUGUUAUGUAAAGAAGAGGACCGGGAGAAGGAAGG [ExTryptoB.Dn]	235
CGCAGUGAUGUUGUGAUUAACUACAGGGAAGGAGCGUGCUAGAGCACAGGUAGGUCGCCCAGUGGCCGAGUGAUGUUCGGCGGGU [Same State Arginine A GF 27]	237
ACAGUCGGCUGUGAUACCAGUCGUAUUACAACAUGUUGCAGUGAUGUUGCGAGAUAGGAUGACCCUUGGCAGCACUCAGUACGAU [Same State Theophylline B GF9]	310

## Task Query apparent KD of K4 kissing-loop reporter for UGAUCUCGGCAGUGAUGUUGCAUAUGAGAAGGAGCGCACGAAAGUGCAGGUAGGUCGCUCAGCCAAAGAAAAUAAAACGAGAUCU [#SwitchBubble #K4Early]
## Result 93.4

## Task Query apparent KD of K4 kissing-loop reporter for AGGUUUUGAUUAGGAUAUGCACUGACGAUGAGAAUAUAGUGAUGUUAUAUACUACGAAUUAGUAGAGUAGAAGGGAUUGAGGUUU [SSFMNB.Z]
## Result 568

## Task Query apparent KD of K4 kissing-loop reporter for UAACUCUUGCAGUGAUGUUGCAAGUAAGCUCAGGAUAUCAGGAAACUGAGAAGGGAGCAUCCUGAGCAACUGCAAGAGCUCAGAA [[K1]-[K2]-[F1]-[F2]-[F]'-[K]'-[F]''_Design1]
## Result 224

## Task Query apparent KD of K4 kissing-loop reporter for GGUAGCAUGGCGGCCGCCACUAUCCUUCAUGGUUGACAUUAAGGAUAGCAUAGUGAUGUUAUGAAUAGGACCGGGCCAUGCUACC
## Result 175

## Task Query apparent KD of K4 kissing-loop reporter for AGCAAUAUCACGGCCGCCACUGAAUAUUGUUUUUAUAUUUAUAAAUCUUGCCAGUGAUGUUGGUUCAGGACCGGGUGAGUUAAUA [JR_SSTryptoB_Sub004]
## Result 573

## Task Query apparent KD of K4 kissing-loop reporter for GACAGCCGGUCGGCCGCCACUUGGAGUGAUGUUCCGCGCGGCGGGCGCCGGAGGGCGUUAAGCCCAAGGACCGGGACCGGUAACG [Celeso]
## Result 114

## Task Query apparent KD of K4 kissing-loop reporter for AAAUUUGCUCAUGAUACCAGCCAGUGAUGUUGGUUGGUCCACCGUGUCCGAACAUUAAGCGGCCCUUGGCAGCAUGAUGCGCGUA [Ininveaen]
## Result 129

## Task Query apparent KD of K4 kissing-loop reporter for UGGGCCGCCUGAGGAUAUAGAGACGAGUGAUGUUCGUGGAUAAGAGCCAGUGAUGUUGGGUUAUUUCUAGAAGGCGGGCGAACUU [Exclusion FMN B GF9]
## Result 144

## Task Query apparent KD of K4 kissing-loop reporter for CGCUUGCACGGAAGGAGCGUCCAAGCGAGACACGAGUGAUGUUCGUGAUCGACGUAAACUGGACAGGUAGGUCGCCGUGCUUAAU [Eresti]
## Result 107
